Test system: ECHCG
assay notes: Example B1 herbicidal action post-emergence, ECHCG
Assay type: in vivo
cond: Rate 1000 g/ha; sprayed after 8 days cultivation; evaluated after 13 days; scores from 10 to 0 (10=total damage to plant; 0=no damage to plant)
Procedure: Seeds of a variety of test species were sown in standard soil in pots. […] After 13 days, the test was evaluated and the assessed scores, from 10 to 0, are tabulated in Table B1 (10=total damage to plant; 0=no damage to plant).
Parameter: assessed score, application post-emergence, ECHCG. Scope: all listed entries.
measured attribute: assessed score, application post-emergence, ECHCG

1. C#CCC1c2nccnc2C(O)=C(c2c(Cl)cccc2C(F)(F)F)S1(=O)=O (racemic) [Compound E2] : 8
2. Cc1cccc(F)c1C1=C(O)c2nccnc2CS1(=O)=O [Compound C4] : 3
3. O=S1(=O)Cc2nccnc2C(O)=C1c1cc(F)ccc1Cl [Compound C15] : 5
4. O=S1(=O)Cc2nccnc2C(O)=C1c1cc(Cl)cc(C(F)(F)F)c1 [Compound C3] : 0
5. COc1ccc(Cl)c(C2=C(O)c3nccnc3CS2(=O)=O)c1F [Compound C5] : 1
6. O=S1(=O)Cc2nccnc2C(O)=C1c1ccc(Cl)cc1C(F)(F)F [Compound C17] : 8
7. O=S1(=O)Cc2nccnc2C(O)=C1c1c(F)ccc(Cl)c1Cl [Compound C1] : 7
8. CC1(C)c2nccnc2C(O)=C(c2c(Cl)cccc2C(F)(F)F)S1(=O)=O [Compound F9] : 8
9. CC1(C)c2nccnc2C(O)=C(c2c(F)ccc(Br)c2Cl)S1(=O)=O [Compound F2] : 8
10. CCC1c2nccnc2C(O)=C(c2ccc(Br)cc2C(F)(F)F)S1(=O)=O (centres unmarked) [Compound E14] : 7
11. O=S1(=O)C(c2c(F)ccc(Br)c2Cl)=C(O)c2nccnc2C1Cc1ccc(Cl)s1 (centres unmarked) [Compound E24] : 0
12. CC(C)C(=O)OC1=C(c2c(F)ccc(Br)c2Cl)S(=O)(=O)Cc2nccnc21 [Compound X2] : 8
13. O=S1(=O)C(c2c(F)ccc(Br)c2Cl)=C(O)c2nccnc2C12CCC2 [Compound F7] : 1
14. O=S1(=O)Cc2nccnc2C(O)=C1c1cc(Cl)ccc1C(F)(F)F [Compound C7] : 6
15. O=S1(=O)Cc2nccnc2C(O)=C1c1c(Cl)ccc(Cl)c1Cl [Compound C18] : 8
16. CC1(C)c2nccnc2C(O)=C(c2cc(Cl)ccc2C(F)(F)F)S1(=O)=O [Compound F5] : 8
17. O=S1(=O)Cc2nccnc2C(O)=C1c1cccc(F)c1C(F)(F)F [Compound C10] : 5
18. CC1c2nccnc2C(O)=C(c2c(Cl)cccc2C(F)(F)F)S1(=O)=O (racemic) [Compound E3] : 8
19. O=S1(=O)Cc2nccnc2C(O)=C1c1c(Cl)cc(Cl)cc1Cl [Compound C23] : 8
20. O=S1(=O)Cc2nccnc2C(O)=C1c1ccccc1I [Compound C14] : 7

###

Tested on: AMARE
assay notes: Example B1 herbicidal action post-emergence, AMARE
Type: in vivo
cond: Rate 1000 g/ha; sprayed after 8 days cultivation; evaluated after 13 days; scores from 10 to 0 (10=total damage to plant; 0=no damage to plant)
measured attribute: assessed score, application post-emergence, AMARE

1. O=S1(=O)Cc2nccnc2C(O)=C1c1cc(Cl)ccc1C(F)(F)F : 8
2. Cc1cc(C)c(C2=C(O)c3nccnc3C(C)(C)S2(=O)=O)c(C)c1 : 10
3. O=S1(=O)Cc2nccnc2C(O)=C1c1c(Cl)cccc1C(F)(F)F : 8
4. O=S1(=O)Cc2nccnc2C(O)=C1c1c(Cl)cc(Cl)cc1Cl : 8
5. O=S1(=O)Cc2nccnc2C(O)=C1c1ccc(F)cc1Cl : 5
6. O=S1(=O)C(c2c(F)ccc(Br)c2Cl)=C(O)c2nccnc2C1Cc1ccc(Cl)s1 (stereo not drawn) : 6
7. O=S1(=O)Cc2nccnc2C(O)=C1c1ccc(Br)cc1C(F)(F)F : 10
8. Cc1cccc(F)c1C1=C(O)c2nccnc2CS1(=O)=O : 7
9. O=S1(=O)Cc2nccnc2C(O)=C1c1ccccc1I : 8
